- Target Of Assay: Shiga toxin 2 (Escherichia coli O157:H7) (UniProt P09385+P09386)
- Experiment Description: E. coli 0.157:H7 Shiga Toxin SOP - stx2 screening assay
- Assay type: functional
- Parameters: scale not given: direction of the effect not stated beside the values
- Condition Label: 30 µM
Listed next: entries and their corresponding Percent Effect.
Respond with the bare value in %.

Use these answered entries as a reference point.
[[record]]
compound = "O=C(NCCC(=O)N1CCCC1)c1nn(-c2ccccc2F)cc1O"
value_measured = -59.6

[[record]]
compound = "CCn1cc(NC(=O)NCC(O)c2ccccc2)cn1 (centres undefined)"
value_measured = -5.7

[[record]]
compound = "O=C(Cn1cccnc1=O)NCCc1ccc2c(c1)OCCO2"
value_measured = -33.8

[[record]]
compound = "CCc1nc(NCCCOC)c2c(n1)c(C)nn2C"
value_measured = -21.6

[[record]]
compound = "COc1ccc(Cc2cccc(C3CCN(C)CC3)n2)cc1"
value_measured = -4.18


Attention now turns to another entry.
Task: // query Percent Effect value for entry `CC(C)CCCNC(=O)Nc1ccc(F)c(C(N)=O)c1`
Result: -45.5
